Target: Ba/F3 cells bearing a KRAS G12C mutation (Homo sapiens, UniProt P01116, G12C, cells depend on it)
Sequence (P01116 whole entry G12C): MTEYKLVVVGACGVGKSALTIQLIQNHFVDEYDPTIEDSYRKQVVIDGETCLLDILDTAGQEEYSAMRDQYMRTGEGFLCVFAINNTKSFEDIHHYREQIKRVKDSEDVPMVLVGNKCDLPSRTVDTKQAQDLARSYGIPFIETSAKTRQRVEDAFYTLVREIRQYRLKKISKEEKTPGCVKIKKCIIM
Assay: Ba/F3 cell model proliferation assay (AlamarBlue, 72 h)
Assay type: cell-based
Details: Ba/F3 KRAS G12C cells, 72 h, 10% FCS, uncorrected; read-out: IC50 Ba/F3 KRASG12C
I'd appreciate it if you marked entries label 1 when GI50 is lower than 7 nM and label 0 when it is not.

Worked examples, 5 molecules total:
{"Molecule": "C=CC(=O)N1CCC(Oc2cc(O[C@@H](C)[C@@H]3CCCN3C)nc(-c3cc([C@@]4(C)CCCc5sc(N)c(C#N)c54)no3)n2)CC1", "Assigned class": "label 1"}
{"Molecule": "C=CC(=O)N1[C@@H](C)CN(c2cc(O[C@@H](C)[C@@H]3CCCN3C)nc(-c3cc([C@@]4(C)CCCc5sc(N)c(C#N)c54)sn3)n2)C[C@@H]1C", "Assigned class": "label 1"}
{"Molecule": "C=CC(=O)N1[C@H](C)CN(c2cc(O[C@@H](C)[C@@H]3CCCN3C)nc(-c3cc([C@@]4(C)CCCc5sc(N)c(C#N)c54)no3)n2)C[C@@H]1C", "Assigned class": "label 1"}
{"Molecule": "C=CC(=O)N1CCN(c2cc(O[C@@H](C)[C@@H]3CCCN3C)nc(-c3cc(C4(C)CCCc5sc(N)c(C#N)c54)on3)n2)CC1 (stereo partly drawn)", "Assigned class": "label 1"}
{"Molecule": "C=C(F)C(=O)N1CCC(Oc2cc(O[C@@H](C)[C@@H]3CCCN3C)nc(-c3cc([C@@]4(C)CCCc5sc(N)c(C#N)c54)sn3)n2)CC1", "Assigned class": "label 1"}

(Q) Would you kindly verify if GI50 of C=C(F)C(=O)N1CCC(Oc2cc(N3CCN(C)C[C@@H]3C)nc(-c3cc(C4(C)CCCc5sc(N)c(C#N)c54)on3)n2)CC1 (stereo partly drawn) is strictly less than 7 nM?
(A) label 0

(Q) Decide: GI50 of C=CC(=O)N1CCN(c2cc(O[C@@H](C)[C@@H]3CCCN3C)nc(-c3cc([C@@]4(C)CCCc5sc(N)c(C#N)c54)no3)n2)CC12CC2 strictly below 7 nM?
(A) label 1

(Q) Below 7 nM on GI50? Entry C=CC(=O)N1[C@@H](C)CN(c2cc(O[C@@H](C)[C@@H]3CCCN3C)nc(-c3cc([C@@]4(C)CCCc5sc(N)c(C#N)c54)no3)n2)C[C@@H]1C
(A) label 1

(Q) Is GI50 strictly under 7 nM for the entry COC/C=C/C(=O)N1CCN(c2cc(O[C@@H](C)[C@@H]3CCCN3C)nc(-c3cc(C4(C)CCCc5sc(N)c(C#N)c54)no3)n2)CC1 (stereo partly drawn) ?
(A) label 0

(Q) Dear colleague, could you confirm whether GI50 of C=CC(=O)N1CCN(c2cc(O[C@@H](C)[C@@H]3CCCN3C)nc(-c3cc(C4(C)CCCc5sc(N)c(C#N)c54)no3)n2)CC1 (stereo partly drawn) falls below 7 nM? Thanks.
(A) label 1

(Q) Report whether reported GI50 is lower than 7 nM (strictly) for COC/C=C/C(=O)N1CCN(c2cc(O[C@@H](C)[C@@H]3CCCN3C)nc(-c3cc([C@@]4(C)CCCc5sc(N)c(C#N)c54)on3)n2)[C@H](C)C1
(A) label 0

(Q) In plain terms, does C=CC(=O)N1CCC(Oc2cc(O[C@@H](C)[C@@H]3CCCN3C)nc(-c3cc([C@@]4(C)CCCc5sc(N)c(C#N)c54)on3)n2)CC1 come in under 7 nM for GI50?
(A) label 1

====

Experiment: Plasma protein binding (equilibrium dialysis), mouse plasma
Format: in vitro ADME
Conditions: read-out: PPB mouse fu
Protocol: Plasma Protein Binding (PPB) Binding of test compound to plasma was determined using equilibrium dialysis (ED) and quantitative mass spectrometry interfaced with liquid chromatography (LC-MS). […] After incubation, protein was precipitated from aliquots of each chamber and the concentration of test compound in the supernatant of the plasma-containing compartment (cplasma) and of the buffer-containing compartment (Cbuffer) was determined by LC-MS. […]
For each of the molecules below, state its fraction unbound.
One number for each entry.

The examples below pair each entry with its known result.
{"Molecule": "C=CC(=O)N1CCC(Oc2cc(O[C@@H](C)[C@@H]3CCCN3C)nc(-c3cc([C@@]4(C)CCCc5sc(N)c(C#N)c54)on3)n2)CC1 [Ib-7]", "fraction unbound": 0.007}
{"Molecule": "C=CC(=O)N1CCN(c2cc(O[C@@H](C)[C@@H]3CCCN3C)nc(-c3cc([C@@]4(C)CCCc5sc(N)c(C#N)c54)sn3)n2)CC1 [Id-1]", "fraction unbound": 0.021}
{"Molecule": "COC/C=C/C(=O)N1CCN(c2cc(O[C@@H](C)[C@@H]3CCCN3C)nc(-c3cc(C4(C)CCCc5sc(N)c(C#N)c54)on3)n2)CC1 (stereo partly drawn) [Ib-15]", "fraction unbound": 0.011}
{"Molecule": "C=CC(=O)N1CCN(c2cc(O[C@@H](C)[C@@H]3CCCN3C)nc(-c3cc([C@@]4(C)CCCc5sc(N)c(C#N)c54)sn3)n2)CC12CC2 [Id-5]", "fraction unbound": 0.003}
{"Molecule": "C=CC(=O)N1[C@@H](C)CN(c2cc(O[C@@H](C)[C@@H]3CCCN3C)nc(-c3cc([C@@]4(C)CCCc5sc(N)c(C#N)c54)sn3)n2)C[C@@H]1C [Id-4]", "fraction unbound": 0.005}

Let us move to another entry and its fraction unbound.
(Q) // fraction unbound lookup, key: C=C(F)C(=O)N1[C@@H](C)CN(c2cc(O[C@@H](C)[C@@H]3CCCN3C)nc(-c3cc([C@@]4(C)CCCc5sc(N)c(C#N)c54)on3)n2)C[C@@H]1C [Ib-11]
(A) 0.003

====

Assay: Plasma protein binding (equilibrium dialysis), serum 10% FCS in PBS
Type: in vitro ADME
Conditions: bovine, 10% FCS in PBS (serum), read-out: PPB 10% FCS fu
Field: fraction unbound. Provide a value for each of the molecules that follow.

Sample records with fraction unbound:
{"Smiles entry": "C=CC(=O)N1[C@@H](C)CN(c2cc(O[C@@H](C)[C@@H]3CCCN3C)nc(-c3cc([C@@]4(C)CCCc5sc(N)c(C#N)c54)no3)n2)C[C@@H]1C", "fraction unbound": 0.083}
{"Smiles entry": "C=CC(=O)N1CCN(c2cc(O[C@@H](C)[C@@H]3CCCN3C)nc(-c3cc([C@@]4(C)CCCc5sc(N)c(C#N)c54)sn3)n2)CC12CC2", "fraction unbound": 0.338}

From here, focus on the item given below.
(Q) I would be grateful if you could share the reported fraction unbound for COC/C=C/C(=O)N1CCN(c2cc(O[C@@H](C)[C@@H]3CCCN3C)nc(-c3cc([C@@]4(C)CCCc5sc(N)c(C#N)c54)on3)n2)[C@H](C)C1 .
(A) 0.066

====

Target: Ba/F3 cells bearing a KRAS G12C mutation (Homo sapiens, UniProt P01116, G12C, cells depend on it)
Test: Ba/F3 cell model proliferation assay (AlamarBlue, 72 h)
Assay type: cell-based
Settings: corrected by plasma protein binding in 10% FCS (fraction unbound); read-out: IC50 Ba/F3 KRASG12C (corrected)
Please note: GI50 exactly at 0.6 nM is label 0. Only values below 0.6 nM get label 1.

{"Molecule": "C=CC(=O)N1CCC(Oc2cc(O[C@@H](C)[C@@H]3CCCN3C)nc(-c3cc([C@@]4(C)CCCc5sc(N)c(C#N)c54)on3)n2)CC1", "Assigned class": "label 1"}
{"Molecule": "C=CC(=O)N1CCC(Oc2cc(N3CCN(C)C[C@@H]3C)nc(-c3cc(C4(C)CCCc5sc(N)c(C#N)c54)on3)n2)CC1 (some centres unmarked)", "Assigned class": "label 0"}
{"Molecule": "C=CC(=O)N1CCC(Oc2cc(O[C@@H](C)[C@@H]3CCCN3C)nc(-c3cc([C@@]4(C)CCCc5sc(N)c(C#N)c54)sn3)n2)CC1", "Assigned class": "label 1"}

Read the next record carefully.
(Q) Criterion: GI50 strictly below 0.6 nM. Is it met by C=C(F)C(=O)N1[C@@H](C)CN(c2nc(-c3cc([C@@]4(C)CCCc5sc(N)c(C#N)c54)on3)nc(O[C@@H](C)[C@@H]3CCCN3C)c2Cl)C[C@@H]1C ?
(A) label 0

====

Kindly supply the reported fraction unbound values for the records listed here.
Assay: Plasma protein binding (equilibrium dialysis), serum 10% FCS in PBS
Type: in vitro ADME
Settings: bovine, 10% FCS in PBS (serum), read-out: PPB 10% FCS fu
Answers are plain numbers.

Previously resolved entries follow.
{"Compound": "COC/C=C/C(=O)N1CCN(c2cc(O[C@@H](C)[C@@H]3CCCN3C)nc(-c3cc(C4(C)CCCc5sc(N)c(C#N)c54)no3)n2)CC1 (stereo partly drawn) [Ic-9]", "fraction unbound": 0.259}
{"Compound": "C=CC(=O)N1CCC(Oc2cc(N3CCN(C)C[C@@H]3C)nc(-c3cc(C4(C)CCCc5sc(N)c(C#N)c54)on3)n2)CC1 (stereo partly drawn) [Ib-8]", "fraction unbound": 0.198}
{"Compound": "C=C(F)C(=O)N1CCC(Oc2cc(O[C@@H](C)[C@@H]3CCCN3C)nc(-c3cc([C@@]4(C)CCCc5sc(N)c(C#N)c54)sn3)n2)CC1 [Id-8]", "fraction unbound": 0.352}
{"Compound": "COC/C=C/C(=O)N1CCN(c2cc(O[C@@H](C)[C@@H]3CCCN3C)nc(-c3cc([C@@]4(C)CCCc5sc(N)c(C#N)c54)sn3)n2)CC12CC2 [Id-9]", "fraction unbound": 0.336}
{"Compound": "COC/C=C/C(=O)N1CCN(c2cc(O[C@@H](C)[C@@H]3CCCN3C)nc(-c3cc(C4(C)CCCc5sc(N)c(C#N)c54)on3)n2)CC1 (stereo partly drawn) [Ib-15]", "fraction unbound": 0.185}
{"Compound": "C=CC(=O)N1[C@@H](C)CN(c2cc(O[C@@H](C)[C@@H]3CCCN3C)nc(-c3cc([C@@]4(C)CCCc5sc(N)c(C#N)c54)on3)n2)C[C@@H]1C [Ib-4]", "fraction unbound": 0.055}

Field: fraction unbound. Fill in for each record below.
1. C=C(F)C(=O)N1[C@@H](C)CN(c2cc(O[C@@H](C)[C@@H]3CCCN3C)nc(-c3cc([C@@]4(C)CCCc5sc(N)c(C#N)c54)on3)n2)C[C@@H]1C [Ib-11]
2. C=CC(=O)N1CCN(c2cc(O[C@@H](C)[C@@H]3CCCN3C)nc(-c3cc([C@@]4(C)CCCc5sc(N)c(C#N)c54)sn3)n2)CC1 [Id-1]
3. C=C(F)C(=O)N1CCN(c2nc(OC[C@@H]3CCCN3C)nc3c2CCN(c2cccc4cccc(Cl)c24)C3)C[C@@H]1CC#N [adagrasib, reference compound]
4. C=CC(=O)N1CCC(Oc2cc(O[C@@H](C)[C@@H]3CCCN3C)nc(-c3cc([C@@]4(C)CCCc5sc(N)c(C#N)c54)no3)n2)CC1 [Ic-6]
5. C=CC(=O)N1[C@@H](C)CN(c2nc(-c3cc([C@@]4(C)CCCc5sc(N)c(C#N)c54)on3)nc(O[C@@H](C)[C@@H]3CCCN3C)c2Cl)C[C@@H]1C [Ib-9]
6. C=CC(=O)N1CCN(c2cc(O[C@@H](C)[C@@H]3CCCN3C)nc(-c3cc([C@@]4(C)CCCc5sc(N)c(C#N)c54)on3)n2)[C@H](C)C1 [Ib-1]

(A)
[0.045, 0.476, 0.43, 0.093, 0.026, 0.075]
